tested-on: Voltage-gated N-type calcium channel alpha-1B subunit/Amyloid beta A4 precursor protein-binding family A member 1 (Homo sapiens, UniProt Q00975+Q02410)
Sequence (Q00975 whole entry): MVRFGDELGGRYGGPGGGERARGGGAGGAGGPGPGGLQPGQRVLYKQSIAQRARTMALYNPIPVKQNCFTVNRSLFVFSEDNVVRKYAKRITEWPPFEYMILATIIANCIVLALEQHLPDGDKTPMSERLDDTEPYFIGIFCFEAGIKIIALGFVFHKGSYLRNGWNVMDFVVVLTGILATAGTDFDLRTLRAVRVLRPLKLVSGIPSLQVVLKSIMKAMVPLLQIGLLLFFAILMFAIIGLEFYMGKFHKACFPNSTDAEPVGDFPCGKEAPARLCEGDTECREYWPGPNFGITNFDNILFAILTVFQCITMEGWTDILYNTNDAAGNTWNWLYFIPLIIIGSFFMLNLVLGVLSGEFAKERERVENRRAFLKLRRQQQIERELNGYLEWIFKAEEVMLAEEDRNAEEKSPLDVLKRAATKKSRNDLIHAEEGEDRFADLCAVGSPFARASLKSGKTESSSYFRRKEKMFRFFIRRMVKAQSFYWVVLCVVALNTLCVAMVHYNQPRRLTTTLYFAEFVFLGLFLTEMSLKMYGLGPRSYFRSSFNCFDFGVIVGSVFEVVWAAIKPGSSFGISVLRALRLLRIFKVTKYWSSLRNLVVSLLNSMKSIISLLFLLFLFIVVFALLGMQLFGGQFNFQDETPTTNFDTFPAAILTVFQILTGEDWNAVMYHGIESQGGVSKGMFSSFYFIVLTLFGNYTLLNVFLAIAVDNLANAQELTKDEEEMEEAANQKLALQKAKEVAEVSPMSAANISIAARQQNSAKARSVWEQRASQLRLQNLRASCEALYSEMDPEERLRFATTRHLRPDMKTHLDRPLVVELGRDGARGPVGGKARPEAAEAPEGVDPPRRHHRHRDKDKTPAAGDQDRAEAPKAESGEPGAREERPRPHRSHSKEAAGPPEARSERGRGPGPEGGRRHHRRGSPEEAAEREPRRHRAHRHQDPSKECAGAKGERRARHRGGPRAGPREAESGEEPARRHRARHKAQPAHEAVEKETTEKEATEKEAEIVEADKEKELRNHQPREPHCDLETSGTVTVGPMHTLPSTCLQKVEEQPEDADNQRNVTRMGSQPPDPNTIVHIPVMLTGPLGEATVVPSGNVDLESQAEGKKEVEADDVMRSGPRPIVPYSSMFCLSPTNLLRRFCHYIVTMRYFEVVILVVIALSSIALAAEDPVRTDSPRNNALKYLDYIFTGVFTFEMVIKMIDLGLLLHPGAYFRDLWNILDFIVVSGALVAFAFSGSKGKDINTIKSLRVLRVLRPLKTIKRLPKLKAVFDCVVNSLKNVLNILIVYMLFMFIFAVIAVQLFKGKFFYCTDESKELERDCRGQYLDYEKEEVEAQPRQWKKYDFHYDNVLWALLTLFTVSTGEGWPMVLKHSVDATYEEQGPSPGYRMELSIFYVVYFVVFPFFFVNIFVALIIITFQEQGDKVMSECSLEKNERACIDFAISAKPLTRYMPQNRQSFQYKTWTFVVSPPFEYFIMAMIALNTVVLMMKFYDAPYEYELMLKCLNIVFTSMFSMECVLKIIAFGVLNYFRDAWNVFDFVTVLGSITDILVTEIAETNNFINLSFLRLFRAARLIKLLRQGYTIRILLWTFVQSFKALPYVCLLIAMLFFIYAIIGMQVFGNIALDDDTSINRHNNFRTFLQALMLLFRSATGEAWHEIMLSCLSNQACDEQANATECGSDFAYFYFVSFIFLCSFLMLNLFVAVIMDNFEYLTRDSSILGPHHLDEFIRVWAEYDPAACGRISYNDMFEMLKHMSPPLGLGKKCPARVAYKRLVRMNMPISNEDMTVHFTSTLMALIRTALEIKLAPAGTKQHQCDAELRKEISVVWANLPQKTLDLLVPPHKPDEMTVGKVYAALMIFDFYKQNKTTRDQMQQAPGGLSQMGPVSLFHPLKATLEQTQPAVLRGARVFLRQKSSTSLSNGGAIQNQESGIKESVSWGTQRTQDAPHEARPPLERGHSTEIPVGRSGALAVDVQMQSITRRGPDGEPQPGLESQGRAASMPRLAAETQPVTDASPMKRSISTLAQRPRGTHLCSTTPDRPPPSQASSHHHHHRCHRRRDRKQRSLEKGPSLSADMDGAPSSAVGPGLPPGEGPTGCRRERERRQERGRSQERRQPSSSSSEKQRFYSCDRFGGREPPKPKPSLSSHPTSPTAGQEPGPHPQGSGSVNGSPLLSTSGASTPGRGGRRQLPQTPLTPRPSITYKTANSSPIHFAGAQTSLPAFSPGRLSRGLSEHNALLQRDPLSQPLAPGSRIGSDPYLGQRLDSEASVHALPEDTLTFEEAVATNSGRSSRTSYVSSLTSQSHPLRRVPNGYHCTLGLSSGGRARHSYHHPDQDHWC
Sequence (Q02410 whole entry): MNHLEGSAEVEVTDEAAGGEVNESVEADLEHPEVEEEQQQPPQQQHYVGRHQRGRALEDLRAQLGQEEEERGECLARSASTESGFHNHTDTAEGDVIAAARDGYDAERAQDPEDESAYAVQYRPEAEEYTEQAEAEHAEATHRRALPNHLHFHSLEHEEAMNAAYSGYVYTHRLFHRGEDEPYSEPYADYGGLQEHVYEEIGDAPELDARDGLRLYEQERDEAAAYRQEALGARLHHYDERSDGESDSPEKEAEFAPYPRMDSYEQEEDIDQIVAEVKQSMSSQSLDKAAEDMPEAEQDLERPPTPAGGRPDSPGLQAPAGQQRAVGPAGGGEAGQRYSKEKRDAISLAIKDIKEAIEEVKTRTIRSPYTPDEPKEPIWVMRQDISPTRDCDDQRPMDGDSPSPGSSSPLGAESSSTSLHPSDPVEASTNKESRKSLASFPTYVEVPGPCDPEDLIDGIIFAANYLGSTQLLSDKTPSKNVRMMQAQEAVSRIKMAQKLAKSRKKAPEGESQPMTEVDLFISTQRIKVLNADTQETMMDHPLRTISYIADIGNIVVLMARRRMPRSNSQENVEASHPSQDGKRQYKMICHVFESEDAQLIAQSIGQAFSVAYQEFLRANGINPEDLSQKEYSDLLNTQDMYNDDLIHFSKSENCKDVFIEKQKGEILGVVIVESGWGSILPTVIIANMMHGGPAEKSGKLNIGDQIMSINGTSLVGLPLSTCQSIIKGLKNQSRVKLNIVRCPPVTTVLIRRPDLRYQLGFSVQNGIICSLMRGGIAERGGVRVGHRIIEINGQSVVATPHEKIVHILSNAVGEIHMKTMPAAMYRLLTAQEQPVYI
Type: protein assay
The source made the active and inactive calls.
Each item that follows carries a reported IC50.

Known results for compounds:
COc1ccc(C(=O)Nc2nnc(CC(=O)N/N=C/c3ccc(O)cc3O)s2)cc1
2.33 µM (active)
O=C(Nc1ccc(Cl)c(Cl)c1)Nc1nnc(-c2ccncc2)s1
21.1 µM (active)

Request: Query IC50 for N#CCC(=O)N/N=C/c1cn(Cc2ccc(Cl)c(Cl)c2)c2ccccc12
Response: > 56.8 µM (not active)

Request: Query IC50 for N=C1/C(=C/c2ccc(-c3cccc(C(=O)O)c3)o2)C(=O)N=C2SC=C(c3ccccc3)N12
Response: 13.3 µM (active)

====

assay-overview: Luminescence Cell-Based Dose Confirmation HTS to Identify Activators of 5'UTR Stem-Loop Driven Alpha-Synuclein mRNA Translation in H4 Neuroglioblastoma Cells. [Related pubchem assays: 1829 (Project Summary), 1814 (Primary HTS)]
Type: functional
Active and inactive are the calls of the source.
Each item that follows carries a reported EC50.

O=c1c2ccccc2nnn1-c1ccc(Br)cc1
0.157 µM (active)
O=C(C1CCCN1S(=O)(=O)c1cccc2nsnc12)N1CCN(c2ccccc2)CC1 (stereo not given)
> 120 µM (not active)
CC1CCC(NC(=O)c2ccc(NS(=O)(=O)c3ccc4[nH]c(O)nc4c3)cc2)CC1 (stereo not given)
23.4 µM (active)
c1ccc(CN2CCC(Nc3nc(-c4cccnc4)nc4ccccc34)CC2)cc1
13 µM (active)

Request: Query EC50 for COc1ccc(C2=NN(C(C#N)c3ccc(OC)cc3)C(c3ccccc3)C2)cc1 (stereo not given)
Response: 5.24 µM (active)

====

tested-on: Bcl-2-related protein A1 (Mus musculus)
Sequence (Q07440 whole entry): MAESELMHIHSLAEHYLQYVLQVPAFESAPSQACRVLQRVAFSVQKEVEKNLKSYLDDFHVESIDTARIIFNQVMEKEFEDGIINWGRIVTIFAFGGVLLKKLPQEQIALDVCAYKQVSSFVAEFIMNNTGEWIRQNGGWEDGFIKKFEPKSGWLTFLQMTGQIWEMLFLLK
assay-overview: Bfl-1 binding inhibitors, SAR follow-up, biochemical, fluorescence polarization (AID 1070)
Activity calls are given as the source filed them.
property-name: IC50

O=C1C(Cl)=C(N2CCN(CCNCc3ccccn3)CC2)C(=O)N1c1ccc(Cl)c(Cl)c1
16.3 µM (active)
CN1CCN(C2=C(Cl)C(=O)N(c3c(Cl)cccc3Cl)C2=O)CC1
13.4 µM (active)
O=C1C(Cl)=C(Cl)C(=O)N1c1cccc([N+](=O)[O-])c1
11.9 µM (active)

Now consider a different compound.
Request: Query IC50 for O=C1C(Cl)=C(N2CCN(CCOCCO)CC2)C(=O)N1c1ccc(Cl)c(Cl)c1
Response: 0.47 µM (active)

====

tested-on: Corticotropin-releasing factor receptor 2/Corticotropin-releasing factor-binding protein (Homo sapiens, UniProt P24387+Q13324)
Sequence (Q13324 whole entry): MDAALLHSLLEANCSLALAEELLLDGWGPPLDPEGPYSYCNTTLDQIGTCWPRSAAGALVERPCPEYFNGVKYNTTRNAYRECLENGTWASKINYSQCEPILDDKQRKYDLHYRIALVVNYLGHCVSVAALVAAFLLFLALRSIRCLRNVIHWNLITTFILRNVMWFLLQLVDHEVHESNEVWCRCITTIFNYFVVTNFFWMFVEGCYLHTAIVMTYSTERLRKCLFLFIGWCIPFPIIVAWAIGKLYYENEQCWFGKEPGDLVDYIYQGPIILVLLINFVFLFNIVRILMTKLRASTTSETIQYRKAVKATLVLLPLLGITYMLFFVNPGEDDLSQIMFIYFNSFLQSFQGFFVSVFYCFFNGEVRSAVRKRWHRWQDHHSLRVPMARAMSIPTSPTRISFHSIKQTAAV
Sequence (P24387 whole entry): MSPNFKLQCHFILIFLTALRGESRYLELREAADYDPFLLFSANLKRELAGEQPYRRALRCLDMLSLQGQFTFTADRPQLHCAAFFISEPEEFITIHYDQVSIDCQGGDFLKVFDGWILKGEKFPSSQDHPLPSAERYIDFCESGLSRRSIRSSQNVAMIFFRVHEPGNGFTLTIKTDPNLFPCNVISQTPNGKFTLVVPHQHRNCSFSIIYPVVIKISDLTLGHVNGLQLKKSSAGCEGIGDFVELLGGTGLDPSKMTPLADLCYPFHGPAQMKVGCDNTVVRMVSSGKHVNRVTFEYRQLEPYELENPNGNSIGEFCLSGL
assay-overview: Dose Response confirmation of uHTS hits for small molecule antagonists of the CRF-binding protein and CRF-R2 receptor complex.
Type: functional
condition-context: read-out: IC50_Mean
Activity calls are given as the source filed them.
Thanks in advance; please answer with one of these: active, inactive

Recorded results for 2 compounds are shown here.
CC(C)=C1C2CCC1C(C(=O)Nc1sc(C)c(-c3ccc(C(C)C)cc3)c1C(N)=O)C2C(=O)O (stereo not given)
active
CCOC(=O)c1cc(C#N)c(Oc2ccccc2OC)nc1-c1ccccc1
inactive

Request: // return assay outcome for CCOC(=O)C1CCN(c2ncnc3c2nnn3Cc2ccccc2Cl)CC1
Response: inactive

Request: // return assay outcome for O=C1S/C(=C\c2ccc(O)c([N+](=O)[O-])c2)C(=O)N1c1ccccc1Cl
Response: active

Request: // return assay outcome for Cn1c(=O)cc(OCCCC(=O)NCCN2CCN(c3ccccc3F)CC2)c2ccccc21
Response: inactive

meta.source: ChEMBL document CHEMBL1201862
